- test-system: C-X-C chemokine receptor type 5 (Homo sapiens)
- assay-comment: CXCR6 and CXCR5 receptor antagonist panel, profiling panel, selectivity assay for CXCR6 antagonist project, cell-based, CHO-K1 PathHunter beta-arrestin, luminescence, set 4 (AID 651919)
- experimental-context: CHO-K1 PathHunter CXCR5 beta-arrestin, CXCR5, mean of runs
Activity calls are given as the source filed them.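 How the source made its calls: active means CXCR6 IC50 below 5 µM, and the CXCR5 counter screen gives no IC50 under five times the CXCR6 IC50; inactive means the rest.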
Labels: 1 = active, -1 = inactive

>  <compound>
O=C(CN1C2CCCC1CC(NC(=O)c1ccccc1)C2)Nc1ccccc1 (centres undefined)

>  <label>
-1

$$$$
>  <compound>
COc1ccc(NC(=O)CN2C3CCCC2CC(NC(=O)c2ccc(OC)c(OC)c2)C3)cc1 (centres undefined)

>  <label>
-1

$$$$
>  <compound>
COc1ccc(C(=O)NC2CC3CCCC(C2)N3CC(=O)Nc2ccc(Cl)cc2)cc1OC (centres undefined)

>  <label>
-1

$$$$
>  <compound>
COc1ccccc1NC(=O)CN1C2CCCC1CC(NC(=O)c1cc(OC)c(OC)c(OC)c1)C2 (centres undefined)

>  <label>
-1

$$$$
>  <compound>
COc1ccc(C(=O)NC2CC3CCCC(C2)N3CC(=O)Nc2ccccc2)cc1OC (centres undefined)

>  <label>
-1

$$$$
>  <compound>
COc1cc(OC)cc(C(=O)NC2CC3CCCC(C2)N3CC(=O)Nc2ccc(Cl)cc2)c1 (centres undefined)

>  <label>
-1

$$$$
>  <compound>
COc1cc(C(=O)NC2CC3CCCC(C2)N3CC(=O)Nc2ccc(F)cc2)cc(OC)c1OC (centres undefined)

>  <label>
-1

$$$$
>  <compound>
COc1cc(OC)cc(C(=O)NC2CC3CCCC(C2)N3CC(=O)Nc2ccc(F)cc2)c1 (centres undefined)

>  <label>
1

$$$$
>  <compound>
COc1ccc(NC(=O)CN2C3CCCC2CC(NC(=O)c2cc(OC)cc(OC)c2)C3)cc1 (centres undefined)

>  <label>
-1

$$$$
>  <compound>
O=C(CN1C2CCCC1CC(NC(=O)c1ccc3c(c1)OCO3)C2)Nc1ccccc1 (centres undefined)

>  <label>
-1

$$$$
>  <compound>
COc1ccc(CN2C3CCCC2CC(NC(=O)c2cc(OC)c(OC)c(OC)c2)C3)cc1 (centres undefined)

>  <label>
-1

$$$$
>  <compound>
COc1cc(C(=O)NC2CC3CCCC(C2)N3CC(=O)Nc2ccc(C)cc2)cc(OC)c1OC (centres undefined)

>  <label>
-1

$$$$
>  <compound>
COc1ccc(C(=O)NC2CC3CCCC(C2)N3CC(=O)Nc2ccc(C)cc2)cc1 (centres undefined)

>  <label>
-1

$$$$
>  <compound>
COc1cc(C(=O)NC2CC3CCCC(C2)N3CC(=O)Nc2ccccc2Cl)cc(OC)c1OC (centres undefined)

>  <label>
-1

$$$$
>  <compound>
COc1ccc(NC(=O)CN2C3CCCC2CC(NC(=O)c2ccc(OC)cc2)C3)cc1 (centres undefined)

>  <label>
-1

$$$$
>  <compound>
COc1cccc(C(=O)NC2CC3CCCC(C2)N3CC(=O)Nc2ccc(F)cc2)c1 (centres undefined)

>  <label>
-1

$$$$
>  <compound>
COc1cc(OC)cc(C(=O)NC2CC3CCCC(C2)N3CC(=O)Nc2ccc(C)cc2)c1 (centres undefined)

>  <label>
-1

$$$$
>  <compound>
COc1cc(C(=O)NC2CC3CCCC(C2)N3CC(=O)Nc2ccccc2)cc(OC)c1OC (centres undefined)

>  <label>
-1

$$$$
>  <compound>
COc1ccc(C(=O)NC2CC3CCCC(C2)N3CC(=O)Nc2ccc(F)cc2)cc1 (centres undefined)

>  <label>
-1

$$$$
